// values below are reported responders at 150 mg/kg
system: Candida albicans ATCC 11651; test: In vivo systemic Candida infection in mice, primary assay; parameters: species or system Candida albicans; CF-1 female mice; details: Candida albicans, ATCC11651, 336 h, 150 mg/kg per day, day 14; read-out: % Survival
reported-property: responders at 150 mg/kg

>  <compound>
C=C(c1ccccc1Cl)C(O)(Cn1cncn1)c1ccccc1Cl (stereo not drawn)

>  <assayed-system>
Candida albicans ATCC 11651

>  <reported-property>
responders at 150 mg/kg

>  <measured>
100%

$$$$
>  <compound>
C=C(c1ccc(F)cc1)C(O)(Cn1cncn1)c1cccc(C(F)(F)F)c1 (stereo not drawn)

>  <assayed-system>
Candida albicans ATCC 11651

>  <reported-property>
responders at 150 mg/kg

>  <measured>
20%

$$$$
>  <compound>
C=C(c1cccc(Cl)c1)C(O)(Cn1cncn1)c1ccc(Cl)c(Cl)c1 (stereo not drawn)

>  <assayed-system>
Candida albicans ATCC 11651

>  <reported-property>
responders at 150 mg/kg

>  <measured>
50%

$$$$
>  <compound>
C=C(c1ccc(C(C)(C)C)cc1)C(O)(Cn1cncn1)c1ccc(F)cc1 (stereo not drawn)

>  <assayed-system>
Candida albicans ATCC 11651

>  <reported-property>
responders at 150 mg/kg

>  <measured>
10%

$$$$
>  <compound>
C=C(c1cccc(Cl)c1)C(O)(Cn1cncn1)c1ccc(F)cc1F (stereo not drawn)

>  <assayed-system>
Candida albicans ATCC 11651

>  <reported-property>
responders at 150 mg/kg

>  <measured>
80%

$$$$
>  <compound>
C=C(c1ccccc1)C(O)(Cn1ncnc1S)c1ccc(F)cc1 (stereo not drawn)

>  <assayed-system>
Candida albicans ATCC 11651

>  <reported-property>
responders at 150 mg/kg

>  <measured>
0%

$$$$
>  <compound>
C=C(c1ccc(F)cc1)C(O)(Cn1cncn1)c1ccc(Cl)c(Cl)c1 (stereo not drawn)

>  <assayed-system>
Candida albicans ATCC 11651

>  <reported-property>
responders at 150 mg/kg

>  <measured>
50%

$$$$
>  <compound>
C=C(c1cccc(Cl)c1)C(O)(Cn1cncn1)c1ccccc1F (stereo not drawn)

>  <assayed-system>
Candida albicans ATCC 11651

>  <reported-property>
responders at 150 mg/kg

>  <measured>
80%

$$$$
>  <compound>
C=C(c1ccccc1C(F)(F)F)C(O)(Cn1cncn1)c1ccc(F)cc1 (stereo not drawn)

>  <assayed-system>
Candida albicans ATCC 11651

>  <reported-property>
responders at 150 mg/kg

>  <measured>
90%

$$$$

---

system: CTCHWD BEDSTRAW; test: Test E; format: in vivo, Galium aparine; settings: POSTEMERGENCE 0250 GM/HA

>  <molecule>
C=C(c1ccc(F)cc1)C(O)(Cn1cncn1)c1ccc(F)cc1F (stereo not shown)

>  <plant response>
80%

$$$$
>  <molecule>
C=C(c1ccccc1)C(O)(Cn1cncn1)c1ccc(Cl)cc1 (stereo not shown)

>  <plant response>
0%

$$$$
>  <molecule>
C=C(c1ccc(F)cc1)C(O)(Cn1cncn1)c1ccccc1F (stereo not shown)

>  <plant response>
30%

$$$$
>  <molecule>
C=C(c1ccccc1)C(O)(Cn1cncn1)c1ccc(F)cc1F (stereo not shown)

>  <plant response>
70%

$$$$

---

system: Rhizoctonia solani; assay: Example F rice sheath blight; assay type: in vivo; settings: Rhizoctonia solani, 144 h, 20 PPM; read-out: disease control rating, Ex. F
reported-property: pest or weed control at 20 ppm (%)

>  <compound>
C=C(c1ccc(F)cc1)C(O)(Cn1cncn1)c1cccc(C(F)(F)F)c1 (stereo not shown) [Example 661]

>  <reported-property>
pest or weed control at 20 ppm

>  <measured>
10

$$$$
>  <compound>
C=C(c1cccc(F)c1)C(O)(Cn1cncn1)c1ccc(Cl)cc1Cl (stereo not shown) [Example 16]

>  <reported-property>
pest or weed control at 20 ppm

>  <measured>
0

$$$$
>  <compound>
C=C(c1ccc(F)cc1)C(O)(Cn1cncn1)C(C)C (stereo not shown) [Example 667]

>  <reported-property>
pest or weed control at 20 ppm

>  <measured>
0

$$$$
>  <compound>
C=C(c1ccccc1Cl)C(O)(Cn1cncn1)c1ccc(Cl)cc1Cl (stereo not shown) [Example 33]

>  <reported-property>
pest or weed control at 20 ppm

>  <measured>
29

$$$$
>  <compound>
OC(Cn1cncn1)(C(=Cc1ccccc1)c1ccccc1)c1ccc(F)cc1 (stereo not shown) [Example 291]

>  <reported-property>
pest or weed control at 20 ppm

>  <measured>
0

$$$$
>  <compound>
C=C(c1cccc(Cl)c1)C(O)(Cn1cncn1)c1ccc(F)cc1F (stereo not shown) [Example 42]

>  <reported-property>
pest or weed control at 20 ppm

>  <measured>
0

$$$$
>  <compound>
C=C(c1ccc(F)cc1)C(Cn1cncn1)(OC(C)=O)c1ccc(F)cc1 (stereo not shown) [Example 361]

>  <reported-property>
pest or weed control at 20 ppm

>  <measured>
0

$$$$
>  <compound>
C=C(c1ccccc1Cl)C(O)(Cn1cncn1)c1ccc(Cl)c(Cl)c1 (stereo not shown) [Example 627]

>  <reported-property>
pest or weed control at 20 ppm

>  <measured>
0

$$$$
>  <compound>
C=C(c1ccc(Cl)cc1)C(O)(Cn1cncn1)c1cccc(C(F)(F)F)c1 (stereo not shown) [Example 685]

>  <reported-property>
pest or weed control at 20 ppm

>  <measured>
15

$$$$
>  <compound>
C=C(c1ccc(F)cc1)C(O)(Cn1cncn1)c1ccc(Cl)c(Cl)c1 (stereo not shown) [Example 651]

>  <reported-property>
pest or weed control at 20 ppm

>  <measured>
0

$$$$
>  <compound>
C=C(c1ccc(Cl)cc1)C(O)(Cn1cncn1)c1ccc(Cl)c(Cl)c1 (stereo not shown) [Example 675]

>  <reported-property>
pest or weed control at 20 ppm

>  <measured>
0

$$$$
>  <compound>
C=C(c1ccc(C(F)(F)F)cc1)C(O)(Cn1cncn1)c1ccc(Cl)cc1 (stereo not shown) [Example 67]

>  <reported-property>
pest or weed control at 20 ppm

>  <measured>
35

$$$$
>  <compound>
C=C(c1ccc(SC)cc1)C(O)(Cn1cncn1)c1ccc(F)cc1 (stereo not shown) [Example 163]

>  <reported-property>
pest or weed control at 20 ppm

>  <measured>
0

$$$$
>  <compound>
C=C(c1ccc(F)cc1)C(O)(CC)Cn1cncn1 (stereo not shown) [Example 668]

>  <reported-property>
pest or weed control at 20 ppm

>  <measured>
0

$$$$
>  <compound>
C=C(c1ccccc1)C(O)(Cn1cncn1)c1ccccc1Cl (stereo not shown) [Example 596]

>  <reported-property>
pest or weed control at 20 ppm

>  <measured>
0

$$$$
>  <compound>
C=C(c1cccc(Cl)c1)C(O)(Cn1cncn1)c1ccc(Cl)c(Cl)c1 (stereo not shown) [Example 905]

>  <reported-property>
pest or weed control at 20 ppm

>  <measured>
0

$$$$
>  <compound>
C=C(c1ccc([S+](C)[O-])cc1)C(O)(Cn1cncn1)c1ccc(F)cc1 (stereo not shown) [Example 170]

>  <reported-property>
pest or weed control at 20 ppm

>  <measured>
0

$$$$
>  <compound>
C=C(c1ccc(OC)cc1)C(O)(Cn1cncn1)c1ccc(F)cc1 (stereo not shown) [Example 726]

>  <reported-property>
pest or weed control at 20 ppm

>  <measured>
0

$$$$
>  <compound>
C=C(c1cccc(F)c1)C(O)(Cn1cncn1)c1ccc(Cl)cc1 (stereo not shown) [Example 17]

>  <reported-property>
pest or weed control at 20 ppm

>  <measured>
0

$$$$

---

test system: BONANZA BARLEY; assay: Test E; assay type: in vivo, Hordeum vulgare cv. Bonanza; conditions: POSTEMERGENCE 0500 GM/HA
Listed here: items and their measured plant response.

>  <molecule>
C=C(c1ccccc1)C(O)(Cn1cncn1)c1ccc(Cl)cc1 (stereo not shown) [Example 51]

>  <assayed-system>
BONANZA BARLEY

>  <measurement-units>
%

>  <plant response>
0

$$$$
>  <molecule>
C=C(c1ccc(F)cc1)C(O)(Cn1cncn1)c1ccc(F)cc1F (stereo not shown) [Example 4]

>  <assayed-system>
BONANZA BARLEY

>  <measurement-units>
%

>  <plant response>
60

$$$$
>  <molecule>
C=C(c1ccc(F)cc1)C(O)(Cn1cncn1)c1ccccc1F (stereo not shown) [Example 644]

>  <assayed-system>
BONANZA BARLEY

>  <measurement-units>
%

>  <plant response>
40

$$$$
>  <molecule>
C=C(c1ccccc1)C(O)(Cn1cncn1)c1ccc(F)cc1F (stereo not shown) [Example 52]

>  <assayed-system>
BONANZA BARLEY

>  <measurement-units>
%

>  <plant response>
40

$$$$

---

test system: BLACKGRASS; assay: Test E; assay type: in vivo, Alopercurus mysuroides; settings: POSTEMERGENCE 0125 GM/HA
// plant response lookup, one value per entry

>  <molecule>
C=C(c1ccccc1)C(O)(Cn1cncn1)c1ccc(Cl)cc1 (stereo not shown)

>  <assayed-system>
BLACKGRASS

>  <measurement-units>
%

>  <plant response>
0

$$$$
>  <molecule>
C=C(c1ccccc1)C(O)(Cn1cncn1)c1ccc(F)cc1F (stereo not shown)

>  <assayed-system>
BLACKGRASS

>  <measurement-units>
%

>  <plant response>
0

$$$$
>  <molecule>
C=C(c1ccc(F)cc1)C(O)(Cn1cncn1)c1ccccc1F (stereo not shown)

>  <assayed-system>
BLACKGRASS

>  <measurement-units>
%

>  <plant response>
0

$$$$
>  <molecule>
C=C(c1ccc(F)cc1)C(O)(Cn1cncn1)c1ccc(F)cc1F (stereo not shown)

>  <assayed-system>
BLACKGRASS

>  <measurement-units>
%

>  <plant response>
20

$$$$
